This collection of values is drawn from ChEMBL document CHEMBL3885861.

Catalogue of gamma-GTP readings, one per entry.
Species on record: Rattus norvegicus
assay.overview: Open TG-GATES - Regimen: Daily Repeat
Type: toxicity, organism-based, Sprague-Dawley
Parameters: regimen Daily Repeat, gender Male, age 6 weeks
assay.setup: in vivo, po, 0 mg/kg, […], tissue Plasma, route gavage, dose level Control, time 14 day
Numeric answer only, unit IU/L assumed.

A selection of reference data follows.
{"molecule": "COc1ccc(O)c(C(C)(C)C)c1.COc1ccc(O)cc1C(C)(C)C [BUTYLATED HYDROXYANISOLE]", "recorded.number": 1}
{"molecule": "COc1ccc(Cl)cc1C(=O)NCCc1ccc(S(=O)(=O)NC(=O)NC2CCCCC2)cc1 [GLYBURIDE]", "recorded.number": 1.2}
{"molecule": "C=CCO", "recorded.number": 1.2}
{"molecule": "O=C1CN(/N=C/c2ccc(-c3ccc([N+](=O)[O-])cc3)o2)C(O)=N1", "recorded.number": 0.8}

### Prompt Item under review: Cn1cnc([N+](=O)[O-])c1Sc1ncnc2nc[nH]c12 . Reported gamma-GTP?
### Response 1.2
